Assignment: determine reported slope for the given molecules.
target-of-assay: Alpha-2C adrenergic receptor (Homo sapiens) (UniProt P18825)
Sequence (P18825 whole entry, looked up): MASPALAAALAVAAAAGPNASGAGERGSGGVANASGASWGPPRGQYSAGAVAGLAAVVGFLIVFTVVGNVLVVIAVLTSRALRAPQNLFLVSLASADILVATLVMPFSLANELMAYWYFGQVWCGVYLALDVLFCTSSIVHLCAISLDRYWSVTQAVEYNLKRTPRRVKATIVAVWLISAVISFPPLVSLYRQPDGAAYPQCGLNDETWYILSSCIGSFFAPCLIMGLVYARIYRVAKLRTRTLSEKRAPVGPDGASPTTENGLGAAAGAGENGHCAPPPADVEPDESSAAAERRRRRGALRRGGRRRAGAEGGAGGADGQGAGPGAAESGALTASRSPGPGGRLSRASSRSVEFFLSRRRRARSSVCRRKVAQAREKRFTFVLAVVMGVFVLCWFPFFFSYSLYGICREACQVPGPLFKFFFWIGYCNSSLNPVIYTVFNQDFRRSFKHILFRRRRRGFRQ
assay-name: modulators of alpha2C/GIRK thallium flux, primary screen, cell-based, HEK293 alpha2C/GIRK1/2 (AID 624);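 further: slope of fluorescence ratio to pre-addition baseline per second over 15 to 24 s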
condition-notes: thallium flux BTC fluorescence, at 10 µM, actives lie on both sides
Reply: number alone, nothing else.

Short answer on Alpha-2C adrenergic receptor (Homo sapiens) (UniProt P18825) for COc1ccc(-c2c3c([nH]c(=S)c2C#N)CCC3)cc1 , slope: 0.00379

Cc1ccc2c(=O)c(CN(C)C3CCN(C)CC3)c(C)[nH]c2c1C on Alpha-2C adrenergic receptor (Homo sapiens) (UniProt P18825) gives slope = 0.00468

Item: COCc1[nH]nc2c1C(c1cccc(OC)c1)C(C#N)=C(N)O2 (stereo not given) | System: Alpha-2C adrenergic receptor (Homo sapiens) (UniProt P18825) | slope: 0.00513

slope value, target or system Alpha-2C adrenergic receptor (Homo sapiens) (UniProt P18825), for CC1(C)CC(N(Cc2ccco2)C(=O)Cc2ccccc2)CCO1 (stereo not given) : 0.00539

Let me check: Cc1csc(NC(=O)CSc2nsc(SCC(=O)Nc3nc(C)cs3)c2C#N)n1 , system Alpha-2C adrenergic receptor (Homo sapiens) (UniProt P18825), measured slope is 0.00462

Given the molecule Cc1occc1C(=O)OCC(=O)Nc1ccc(F)cc1 and test system Alpha-2C adrenergic receptor (Homo sapiens) (UniProt P18825), the measured slope is 0.00567

Per the reported Alpha-2C adrenergic receptor (Homo sapiens) (UniProt P18825) data, C/C(=N\O)C1(C)N(O)C(C)(C)C(c2ccco2)=[N+]1[O-] (stereo not given) has slope of 0.00518

The measured slope that CCOC(=O)c1c(C)cccc1OCC(N)=O showed for Alpha-2C adrenergic receptor (Homo sapiens) (UniProt P18825) is 0.0049

Assay Alpha-2C adrenergic receptor (Homo sapiens) (UniProt P18825), sample c1csc(-c2nn3c(C4CCCCC4)nnc3s2)c1 , slope read: 0.00407

# lookup: CCN(CC)c1ccc2c(C)c(-c3ccc(N)cc3)c(=O)oc2c1 on Alpha-2C adrenergic receptor (Homo sapiens) (UniProt P18825), slope = 0.00526

###

assay-name: inhibitors of TNFa-induced NFkB p65 translocation, primary screen, imaging, HUVEC, MLSMR starter and 10KST1 sets (AID 438);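 further: compound added about 3h40 before a 20 min TNFalpha stimulation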
condition-notes: HUVEC TNFa-induced p65 nuclear translocation; measured here: nuclei count (cytotoxicity indicator), at 2.08 µM
observed-property: cell count
// return just the number, without any unit appended

Just so you know, measured cell count for CCCOC(=O)CSC1=C(C#N)C(c2ccccc2OC)C(C#N)C(=O)N1 (centres undefined) came out at 496

Value of measured cell count for the entry CCCCCCc1cc2cc(-c3nnc(-c4ccccc4O)o3)c(=O)oc2cc1O : 473

Quick note, cell count for COc1ccc(Cn2c(CCCO)nc3ccccc32)cc1OC landed at 577

Summary for this compound, Cn1ccnc1SCCC#N : cell count is 569

Value of measured cell count for the entry Nc1nonc1-c1noc(-c2ccccc2)n1 : 480

GET /value?item= Cc1ccc(OCC(=O)NCC(=O)n2nc(C)cc2C)cc1 &field=cell count returns 580

Per the records, this compound ( CC1(C)Cc2c(sc3nc4n(c(=O)c23)CCC4)CO1 ) has cell count equal to 700

Sure, the documented cell count for Cc1cccc(C)c1OCC(O)CNS(=O)(=O)c1ccccc1C(=O)N1CCCCC1 (centres undefined) is 512

The compound identified as COC(=O)c1ccn(C(=O)c2ccc(Cl)cc2)n1 registered its cell count at 646

Entry under test: CCOC(=O)c1c(C)[nH]sc1=S . Its cell count was 569

cell count for COCCNC(=O)c1c(N)n(/N=C/c2cccs2)c2nc3ccccc3nc12 is 516

Entry O=C(O)CC(NCc1ccco1)C(=O)OCCc1ccccc1 (centres undefined) , cell count reported as 534

response.value for N#CC1(P(=O)(c2ccccc2)c2ccccc2)CC1 (field: cell count) = 481

Sample CC(=O)O[C@H]1C[C@@H]2CC[C@@H]3[C@H](CC[C@@]4(C)[C@H]3C[C@H]([N+]3(C)CCCCC3)[C@@H]4OC(C)=O)[C@@]2(C)C[C@@H]1[N+]1(C)CCCCC1 ; cell count observed: 612

// cell count value for COc1ccc(OCC(O)Cn2c(Nc3cccc(C)c3)nc3c2c(=O)n(C)c(=O)n3C)cc1 (centres undefined) : 514

Entry under test: Cc1[nH]c(=O)[nH]c(=O)c1S(=O)(=O)N1CCCC1 . Its cell count was 473

Reported cell count ( COC(=O)c1cc(Br)c(=O)n(CCc2ccc(F)cc2)c1 ) = 595

# cell count (compound: CCCSc1nc(N2CCCC2)c2c(c1C#N)CC(C)(C)OC2 ) is 521

COc1ccc(C(=O)c2sc(NC(C)C)nc2N)cc1OC yielded cell count of 327

###

assay-name: inhibitors of E-selectin induction by TNFa, primary screen, imaging, HUVEC, immunofluorescence, MLSMR starter and 10KST1 sets (AID 487);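 further: signal is fraction of cell area covered by stained E-selectin grains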
condition-notes: HUVEC TNFalpha-induced E-selectin immunofluorescence imaging, at 2 µM; stronger effect = higher value
The source made the active and inactive calls.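 Rule for the calls: active = visually confirmed hit in the image check and inhibition above 20%; inconclusive = visually confirmed hit but inhibition not above 20%; inactive = no visual hit in the image check.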
Kindly state inhibition for each of the entries shown.

For Cc1c(CCC#N)c(N2CCN(C3CCCCC3)CC2)n2c(nc3ccccc32)c1C#N the compound record lists inhibition as -38.1% (inactive)

Short answer for CCN(CC)CCN1C(=O)C(=O)/C(=C(/O)c2ccc(C)cc2)C1c1cccnc1 (stereo not drawn) : inhibition was -20.8% (inactive)

Memo: Cc1ccc(C2/C(=C(/O)c3ccc(OC(C)C)cc3)C(=O)C(=O)N2CCN2CCOCC2)cc1 (stereo not drawn) , reported inhibition: 7.7% (inactive)

###

assay-name: inhibitors of Sendai virus-induced IRF3 signaling, primary screen, TLR/RLR signaling modifier project, cell-based, Sendai virus stimulus, luciferase, 10K MLSCN set (AID 602276);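 further: firefly luciferase from ISG56 promoter only with Renilla not read in this screen; 0% = Sendai virus plus DMSO and 100% = medium plus DMSO without virus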
condition-notes: HEK293 RL24 IRF3 luciferase reporter, at 10 µM, stronger effect = higher value
I'd be grateful if you could share measured inhibition for these entries.
Output spec: scalar in %, unitless text.

Reported inhibition of Cc1cc(C)n(S(=O)(=O)Cc2ccccc2)n1 : 15

Form field inhibition, entry Cc1nn(-c2ccccc2)c2c1C(=O)NC(=O)C(C)(C)C2 : 14.6

The compound CCOC(=O)N1CCN(c2ncnc3c2[nH]c2ccc(OC)cc23)CC1 showed inhibition equal to -1.93

Please fill in: inhibition reported for NC(=O)N1c2ccccc2C=Cc2ccccc21 = 7.49

// field: inhibition; key: COc1ccc(OC)c(C2C(C#N)=C(N)Oc3cc(C)[nH]c(=O)c32)c1 (configuration not stated) ; value = 13.1

Item: O=C(CCNNC(=O)c1ccncc1)NCc1ccccc1 | inhibition: -7.31

Note to self: inhibition recorded for COc1cccc(C2C(C(=O)c3cc4ccccc4o3)=C(O)C(=O)N2CCN(C)C)c1OC (configuration not stated) was 9.6

GET /value?item= CC(=O)Nc1nnc(S(N)(=O)=O)s1 &field=inhibition returns -14.2

Value of inhibition reported for the compound C[C@]12C[C@H](O)[C@H]3[C@@H](CCC4=CC(=O)CC[C@@]43C)[C@@H]1CC[C@@H]2C(=O)CO is 5.57

For CC[C@H]1OC(=O)C[C@@H](O)[C@H](C)[C@@H](O[C@@H]2O[C@H](C)C[C@H](N(C)C)[C@H]2O)[C@@H](CC=O)C[C@@H](C)C(=O)C=C[C@]2(C)O[C@H]2[C@@H]1C the compound record lists inhibition as 6.6

The reported value for Nc1nc2ccc(OC(F)(F)F)cc2s1 in terms of inhibition is -14.6

Lookup result for Cc1c(C)c2cc(Cl)c(O)c(CN3CCCCC3)c2oc1=O ; measured inhibition: 4.19

###

Please provide measured inhibition for the entries that follow.
target-of-assay: Dual specificity protein phosphatase 6 (Homo sapiens)
assay-name: DUSP6 inhibitors restoring Erk phosphorylation by chemical complementation, primary imaging in DUSP6-transfected HeLa (AID 609);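 further: phospho-Erk level distribution per well compared with pooled transfected vehicle control wells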
condition-notes: HeLa MKP-3 transfected, phospho-Erk imaging KS statistic; at 10 µM; stronger effect = higher value; cells stimulated with TPA for 15 min
API: value field is a number in %; no unit string.

Consider Cn1c(=O)c2c(nc(NCC(O)CO)n2CCc2ccccc2)n(C)c1=O (stereo not given) . Its measured inhibition is 19.8

Noted for CCn1nc(C(=O)O)c(=O)c2cc3c(cc21)OCO3 : its inhibition reads 1.48

// sample Cc1cccc(OCC(=O)N2CCC(N3CCCCCC3)CC2)c1 , its inhibition was 5.57

Input Cc1ccc(N2C(=O)C3ON(c4ccccc4)C(c4ccncc4)C3C2=O)c(C)c1 (stereo not given) . Output inhibition: -12.3

Short answer for COc1ccc(C(=O)Cn2c(N3CCCCC3)nc3c2c(=O)n(C)c(=O)n3C)cc1OC : inhibition was 3.5

Per the record, COc1cc(C(=O)OCCN2CCCCC2)ccc1O has inhibition of -3.98

Item: CCC[C@@H]1C[C@@H](C(=O)N[C@H]([C@@H](C)O)[C@H]2O[C@H](SC)[C@H](O)[C@@H](O)C2O)N(C)C1 (stereo not given in full) | inhibition: 8

According to the records, this compound O=C(Cc1cscn1)c1ccc(O)cc1O displays inhibition of 11.9

The reported inhibition of the compound Cn1c(SCC(=O)NCc2ccccc2)nc2ccccc21 was 3.66

// CC(C)OC(=O)c1sc2nc3c(cc2c1N)C(=O)CCC3 : inhibition value = 9.42
